measured parameter: melting point (°C)

- smiles str: "CNS(=O)(=O)c1sc(N(CCN(C)C)C(=O)Nc2ccc(-c3ccccc3)cc2)nc1C"
  value units: "°C"
  melting point: 154
- smiles str: "CCOc1ccc(NC(=O)N(CCCNC(=O)OC(C)(C)C)c2nc(C)c(S(=O)(=O)N(C)C)s2)cc1"
  value units: "°C"
  melting point: 130
- smiles str: "CCOc1ccc(NC(=O)N(CCNC(=O)OC(C)(C)C)c2nc(C)c(S(=O)(=O)N(C)C)s2)cc1"
  value units: "°C"
  melting point: 164
- smiles str: "CNS(=O)(=O)c1sc(N(CCOC)C(=O)Nc2ccc(N3CCCC3)cc2)nc1C"
  value units: "°C"
  melting point: 184
- smiles str: "Cc1nc(N(C)C(=O)Nc2ccc(-c3ccccc3)cc2)sc1S(=O)(=O)NCC1CC1"
  value units: "°C"
  melting point: 176
- smiles str: "CCOc1ccc(NC(=O)N(C)c2nc(C)c(S(=O)(=O)N(C)C)s2)cc1"
  value units: "°C"
  melting point: 168
- smiles str: "CCn1c(=O)oc2cc(NC(=O)N(C)c3nc(Cl)c(S(=O)(=O)N(C)C)s3)ccc21"
  value units: "°C"
  melting point: 232
- smiles str: "Cc1nc(N(C)C(=O)Nc2ccc(N3CCOCC3)cc2)sc1S(=O)(=O)N(C)C"
  value units: "°C"
  melting point: 171

---

measured parameter: melting point (°C)

I. COC(=O)c1ccc(NC(=O)N(C)C2=NC(Cl)C(S(=O)(=O)N(C)C)S2)cc1 (stereo not shown)
II. CCCN(C(=O)Nc1ccc(-c2ccccc2)cc1)c1nc(C)c(S(=O)(=O)NCC(F)(F)F)s1
query: Higher melting point: I or II ? // output: label of the selected item
result: I
(I: 220 °C, II: 146 °C)

---

measured parameter: melting point (°C)

- molecule: "CCOc1ccc(NC(=O)N(Cc2nc3ccccc3[nH]2)c2nc(C)c(S(=O)(=O)NC)s2)cc1"
  measured parameter: "melting point"
  val: 197
- molecule: "CNS(=O)(=O)c1sc(N(CCOC)C(=O)Nc2ccc(N3CCOCC3)cc2)nc1C"
  measured parameter: "melting point"
  val: 188
- molecule: "Cc1nc(N(C)C(=O)Nc2ccc(N3CCCCC3)cc2)sc1S(=O)(=O)NC1CC1"
  measured parameter: "melting point"
  val: 198
- molecule: "CCCOc1ccc(NC(=O)N(C)C2=CC(C)=C(S(N)(=O)=O)C2)cc1"
  measured parameter: "melting point"
  val: 200
- molecule: "CCc1nc(N(CCCN(CC)CC)C(=O)Nc2ccc(-c3ccccc3)cc2)sc1S(N)(=O)=O"
  measured parameter: "melting point"
  val: 177
- molecule: "Cc1nc(N(CCN(C)C)C(=O)Nc2ccc(-c3ccccc3)cc2)sc1S(N)(=O)=O"
  measured parameter: "melting point"
  val: 138
- molecule: "CCOc1ccc(NC(=O)N(CCN(C)C)c2nc(CC)c(S(=O)(=O)NC)s2)cc1"
  measured parameter: "melting point"
  val: 208
- molecule: "Cc1nc(N(C)C(=O)Nc2ccc(N3CCCCC3)cc2)sc1S(=O)(=O)N(C)C"
  measured parameter: "melting point"
  val: 185
- molecule: "CCc1nc(N(C)C(=O)Nc2ccc(N3CCOCC3)cc2)sc1S(=O)(=O)N(C)C"
  measured parameter: "melting point"
  val: 199
- molecule: "CCOc1ccc(NC(=O)N(C)c2nc(C)c(S(=O)(=O)NCC3CC3)s2)cc1"
  measured parameter: "melting point"
  val: 164
- molecule: "CCOc1ccc(NC(=O)N(CCCO)c2nc(C)c(S(=O)(=O)NC)s2)cc1"
  measured parameter: "melting point"
  val: 161
- molecule: "COCCNS(=O)(=O)c1sc(N(C)C(=O)Nc2ccc(-c3ccccc3)cc2)nc1C"
  measured parameter: "melting point"
  val: 157
- molecule: "CCOC(=O)N1CC2CCN(c3ccc(NC(=O)N(C)c4nc(S(=O)(=O)NC5CC5)c(C)s4)cc3)C2C1 (centres unmarked)"
  measured parameter: "melting point"
  val: 140
- molecule: "CN(C(=O)Nc1ccc(N2CCOCC2)cc1)c1nc(Cl)c(S(=O)(=O)NCc2ccccc2)s1"
  measured parameter: "melting point"
  val: 201
- molecule: "CCCN(C(=O)Nc1ccc(-c2ccccc2)cc1)c1nc(C)c(S(=O)(=O)NC)s1"
  measured parameter: "melting point"
  val: 156
- molecule: "CCOc1ccc(NC(=O)Nc2nc(C)c(S(=O)(=O)NCCOC)s2)cc1"
  measured parameter: "melting point"
  val: 137
- molecule: "CCc1nc(N(CCCO)C(=O)Nc2ccc(N3CCCC3)cc2)sc1S(=O)(=O)NC"
  measured parameter: "melting point"
  val: 161
- molecule: "CNS(=O)(=O)c1sc(N(CC2CCCO2)C(=O)Nc2ccc(-c3ccccc3)cc2)nc1C (centres unmarked)"
  measured parameter: "melting point"
  val: 178
- molecule: "CCOc1ccc(NC(=O)N(C)c2nc(C)c(S(=O)(=O)NCc3ccccn3)s2)cc1"
  measured parameter: "melting point"
  val: 154
- molecule: "Cc1nc(N(C)C(=O)Nc2ccc(OCC(O)CO)cc2)sc1S(=O)(=O)N(C)C (centres unmarked)"
  measured parameter: "melting point"
  val: 156
- molecule: "Cc1nc(N(CCN(C)C)C(=O)Nc2ccc(-c3ccccc3)cc2)sc1S(=O)(=O)N(C)C(=O)Nc1ccc(-c2ccccc2)cc1"
  measured parameter: "melting point"
  val: 190
- molecule: "CNS(=O)(=O)c1sc(NC(=O)Nc2ccc(-c3ccccc3)cc2)nc1C"
  measured parameter: "melting point"
  val: 199
- molecule: "Cc1nc(N(C)C(=O)Nc2ccc(-c3ccccc3)cc2)sc1S(N)(=O)=O"
  measured parameter: "melting point"
  val: 221
- molecule: "CCOc1ccc(NC(=O)N(CCO)c2nc(C)c(S(=O)(=O)N(C)C)s2)cc1"
  measured parameter: "melting point"
  val: 160
- molecule: "C=C(Nc1ccc(N2CCOCC2)cc1)Nc1nc(C)c(S(=O)(=O)N(C)C)s1"
  measured parameter: "melting point"
  val: 188
- molecule: "CCCOc1ccc(NC(=O)N(C)c2nc(C)c(S(=O)(=O)NC)s2)cc1"
  measured parameter: "melting point"
  val: 161
- molecule: "CCOc1ccc(NC(=O)OCCN(C(=O)Nc2ccc(OCC)cc2)c2nc(C)c(S(=O)(=O)N(C)C)s2)cc1"
  measured parameter: "melting point"
  val: 177
- molecule: "CCOc1ccc(NC(=O)N(CCn2ccnn2)c2nc(C)c(S(=O)(=O)NC)s2)cc1"
  measured parameter: "melting point"
  val: 188
- molecule: "CCCN(C(=O)Nc1ccc(-c2ccccc2)cc1)c1nc(C)c(S(=O)(=O)NCC)s1"
  measured parameter: "melting point"
  val: 160
- molecule: "CCc1nc(N(C)C(=O)Nc2ccc(N3CCCC3)cc2)sc1S(=O)(=O)NC"
  measured parameter: "melting point"
  val: 217
- molecule: "CNS(=O)(=O)c1sc(N(C)C(=O)Nc2ccc(-c3cccc(OC)c3)cc2)nc1C"
  measured parameter: "melting point"
  val: 178
- molecule: "CCCN(C(=O)Nc1ccc(N2CCOCC2)cc1)c1nc(C)c(S(=O)(=O)N(C)C)s1"
  measured parameter: "melting point"
  val: 161
- molecule: "CN(C(=O)Nc1ccc(OC(CF)CF)cc1)c1nc(Cl)c(S(=O)(=O)N(C)C)s1"
  measured parameter: "melting point"
  val: 164
